FYI, the data here is from patent US20110251238A1.

System: LoVo (colon cancer)
measurement_description: Growth inhibition, MTT colorimetric assay, LoVo
Format: cell-based
measurement_parameters: Homo sapiens, LoVo, 72 h; carcinoma; 3 days with drug; means of six values; unit inferred; read-out: IC50 LoVo
Method: A549 (human lung adenocarcinoma epithelial), BxPC3 (pancreatic cancer), LoVo (colon cancer), MCF-7 (epithelial breast cancer), PC3 (human prostate cancer), Hs683 (human glioma), T98G (glioblastoma), U373 (human glioblastoma-astrocytoma), U138 MG (human glioma), epithelial-like), SKMEL28 (human melanoma), B16-F10 (mouse melanoma) and RhTP (rhabdomyosarcoma) cell lines were cultured in presence of the drugs for 3 days. The cytotoxic activity is expressed as (IC50). […]
assay_readout: IC50
Reply with the number and its unit after it.

Which IC50 value is on record for Oc1ccc(CN(Cc2ccc(C(F)(F)F)cc2)Cc2ccc(O)c3ncccc23)c2cccnc12 ?
10 nM

Request: O=C(O)C1CCC(CN(Cc2ccc(O)c3ncccc23)Cc2ccc(O)c3ncccc23)CC1 (centres unmarked)
422 nM

Request: Oc1ccc(CN(Cc2ccccc2)Cc2ccc(O)c3ncccc23)c2cccnc12
91 nM

Request: Oc1ccc(CN(Cc2cccc(I)c2)Cc2ccc(O)c3ncccc23)c2cccnc12
393 nM

Request: Oc1ccc(CN(Cc2cccc(C(F)(F)F)c2)Cc2ccc(O)c3ncccc23)c2cccnc12
94 nM
